ASSAYED_TARGET: the molecule itself
PROCEDURE_DETAILS: AUC; sedimentation velocity, c(s) size distribution (SEDFIT), 50,000 rpm, 20 °C, 10 mM Hepes pH 7.4, 50 mM NaCl (low salt control; data not shown); KD of dimer to monomers from integration of the c(s) peaks
pKd: −log10 of the molar value.
QUANTITY_NAME: pKd

>>> observed_value("Complement Factor H SCR-18/20 fragment (domain or fragment, N-linked glycan chain on SCR-18) TSCVNPPTVQNAYIVSRQMSKYPSGERVRYQCRSPYEMFGDEEVMCLNGNWTEPPQCKDSTGKCGPPPPIDNGDITSFPLSVYAPASSVEYQCQNLYQLEGNKRITCRNGQWSEPPKCLHPCVISREIMENYNIALRWTAKQKLYSRTGESVEFVCKRGYRLSSRSHTLRTTCWDGKLEYPTCAKR")
3.74

Values compiled from paper PMC7859452.
